assay_text: Volume of distribution at steady state in Wistar rat at 3.1 uM/kg, po and 2.5 uM/kg, iv
Format: ADME, organism-based
condition_parameters: in vivo, read-out: Vdss

>  <structure_notation>
CC(C)Cn1cc(C#N)c2cc(Oc3ccc(NC(=O)[C@@H]4CCCN4)cc3)ccc21

>  <Vd [L/kg]>
0.4

$$$$

---

Listed below: IC50 values for each entry.
target_entity: 6-phosphofructo-2-kinase/fructose-2,6-bisphosphatase 1 (Homo sapiens)
assay_text: Inhibition of recombinant human PFKFB1 using fructose 6 phosphate as substrate assessed as ADP generation after 1 hr by ADP Glo assay

>  <structure_notation>
CC(C)Cn1cc(C#N)c2cc(Cc3ccc(NC(=O)[C@@H]4CCCN4)cc3)ccc21

>  <IC50>
5.92 µM

$$$$
>  <structure_notation>
CC(C)Cn1c(N)c(C#N)c2cc(Oc3ccc(NC(=O)CN)cc3)ccc21

>  <IC50>
3.18 µM

$$$$
>  <structure_notation>
Cn1cc(-c2c[nH]c3ccc(Oc4ccc(NC(=O)[C@@H]5CCCN5)cc4)cc23)cn1

>  <IC50>
27.4 µM

$$$$
>  <structure_notation>
N#Cc1c(N)[nH]c2ccc(Oc3ccc(NC(=O)[C@@H](N)CO)cc3)cc12

>  <IC50>
51.1 µM

$$$$
>  <structure_notation>
CC(C)Cn1cc(C#N)c2cc(Sc3ccc(NC(=O)[C@@H]4CCCN4)cc3)ccc21

>  <IC50>
1.66 µM

$$$$
>  <structure_notation>
CC(=O)Nc1ccc(Oc2ccc3[nH]c(N)c(C#N)c3c2)cc1

>  <IC50>
24 µM

$$$$
>  <structure_notation>
CCn1cc(C#N)c2cc(Oc3ccc(NC(=O)CN)cc3)ccc21

>  <IC50>
18.4 µM

$$$$
>  <structure_notation>
CCn1c(N)c(C#N)c2cc(Oc3ccc(NC(=O)CN)cc3)ccc21

>  <IC50>
25 µM

$$$$
>  <structure_notation>
CN(C)C(=O)Cn1c(N)c(C#N)c2cc(Oc3ccc(NC(=O)CN)cc3)ccc21

>  <IC50>
2.53 µM

$$$$
>  <structure_notation>
CN1Cc2cc(-n3cc(C#N)c4cc(Oc5ccc(NC(=O)[C@@H]6CCCN6)cc5)ccc43)ccc2C1=O

>  <IC50>
0.701 µM

$$$$
>  <structure_notation>
CCn1cc(C#N)c2cc(Oc3ccc(NC(=O)[C@@H]4CCC(=O)N4)cc3)ccc21

>  <IC50>
> 100 µM

$$$$
>  <structure_notation>
CCn1cc(C#N)c2cc(Oc3ccc(NC(=O)[C@@H]4CCCN4)cc3)ccc21

>  <IC50>
22.1 µM

$$$$
>  <structure_notation>
Cc1noc(C)c1Cn1nc(C#N)c2cc(Oc3ccc(NC(=O)[C@@H]4CCCN4)cc3)ccc21

>  <IC50>
0.191 µM

$$$$
>  <structure_notation>
CCn1cc(C#N)c2cc(Oc3ccc(NC(=O)CNC)cc3)ccc21

>  <IC50>
20.4 µM

$$$$
>  <structure_notation>
CC(C)Cn1cc(C#N)c2cc(Nc3ccc(NC(=O)[C@@H]4CCCN4)cc3)ccc21

>  <IC50>
36.6 µM

$$$$
>  <structure_notation>
Cn1cc(-c2cn(C)c3ccc(Oc4ccc(NC(=O)[C@@H]5CCCN5)cc4)cc23)cn1

>  <IC50>
2.35 µM

$$$$
>  <structure_notation>
CC(C)Cn1cc(C#N)c2cc(S(=O)(=O)c3ccc(NC(=O)[C@@H]4CCCN4)cc3)ccc21

>  <IC50>
0.321 µM

$$$$
>  <structure_notation>
N#Cc1cn(-c2ccccc2)c2ccc(Oc3ccc(NC(=O)[C@@H]4CCCN4)cc3)cc12

>  <IC50>
1.93 µM

$$$$
>  <structure_notation>
N#Cc1c(N)[nH]c2ccc(Oc3ccc(NC(=O)[C@H](N)CO)cc3)cc12

>  <IC50>
61.5 µM

$$$$
>  <structure_notation>
CC(C)Cn1nc(C#N)c2cc(Oc3ccc(NC(=O)[C@@H]4CCCN4)cc3)ccc21

>  <IC50>
0.294 µM

$$$$

---

Listing: IC50 of selected compounds
target_entity: 6-phosphofructo-2-kinase/fructose-2,6-bisphosphatase 1 (Homo sapiens, UniProt P16118)
Sequence (P16118 whole entry): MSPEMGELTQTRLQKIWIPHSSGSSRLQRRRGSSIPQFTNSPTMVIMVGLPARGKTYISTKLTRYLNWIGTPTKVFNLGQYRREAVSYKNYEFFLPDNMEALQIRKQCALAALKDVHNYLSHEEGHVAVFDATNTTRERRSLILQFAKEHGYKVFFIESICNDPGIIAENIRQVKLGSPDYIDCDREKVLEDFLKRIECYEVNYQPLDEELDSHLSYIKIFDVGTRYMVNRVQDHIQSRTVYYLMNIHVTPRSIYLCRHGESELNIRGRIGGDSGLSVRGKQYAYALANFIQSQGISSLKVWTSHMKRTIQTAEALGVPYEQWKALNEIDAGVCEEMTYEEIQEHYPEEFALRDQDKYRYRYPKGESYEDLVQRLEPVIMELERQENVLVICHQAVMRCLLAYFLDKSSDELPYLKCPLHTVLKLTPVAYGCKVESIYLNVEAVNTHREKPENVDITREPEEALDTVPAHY
assay_text: Inhibition of recombinant human PFKFB1 using fructose 6 phosphate as substrate assessed as ADP generation after 1 hr by ADP Glo assay

>  <structure_notation>
CCn1cc(C#N)c2cc(Oc3ccc(NC(=O)[C@@H]4CCN4)cc3)ccc21

>  <target_entity>
6-phosphofructo-2-kinase/fructose-2,6-bisphosphatase 1 (Homo sapiens, UniProt P16118)

>  <IC50>
3.74 µM

$$$$
>  <structure_notation>
N#Cc1cn(Cc2ccccc2)c2ccc(Oc3ccc(NC(=O)[C@@H]4CCCN4)cc3)cc12

>  <target_entity>
6-phosphofructo-2-kinase/fructose-2,6-bisphosphatase 1 (Homo sapiens, UniProt P16118)

>  <IC50>
1.83 µM

$$$$
>  <structure_notation>
CCn1cc(C#N)c2cc(Oc3ccc(NC(=O)[C@@H]4CCCCN4)cc3)ccc21

>  <target_entity>
6-phosphofructo-2-kinase/fructose-2,6-bisphosphatase 1 (Homo sapiens, UniProt P16118)

>  <IC50>
86.3 µM

$$$$
>  <structure_notation>
CC(C)Cn1cc(C#N)c2cc(Oc3ccc(NC(=O)[C@@H]4CCCN4)cc3)ccc21

>  <target_entity>
6-phosphofructo-2-kinase/fructose-2,6-bisphosphatase 1 (Homo sapiens, UniProt P16118)

>  <IC50>
2.06 µM

$$$$
>  <structure_notation>
CC(C)Cn1cc(C#N)c2cc(N(C)c3ccc(NC(=O)[C@@H]4CCCN4)cc3)ccc21

>  <target_entity>
6-phosphofructo-2-kinase/fructose-2,6-bisphosphatase 1 (Homo sapiens, UniProt P16118)

>  <IC50>
5 µM

$$$$
>  <structure_notation>
CN(C)CCn1cc(C#N)c2cc(Oc3ccc(NC(=O)[C@@H]4CCCN4)cc3)ccc21

>  <target_entity>
6-phosphofructo-2-kinase/fructose-2,6-bisphosphatase 1 (Homo sapiens, UniProt P16118)

>  <IC50>
53.8 µM

$$$$
>  <structure_notation>
CCn1cc(C#N)c2cc(Oc3ccc(N(C)C(=O)[C@@H]4CCCN4)cc3)ccc21

>  <target_entity>
6-phosphofructo-2-kinase/fructose-2,6-bisphosphatase 1 (Homo sapiens, UniProt P16118)

>  <IC50>
72.3 µM

$$$$
>  <structure_notation>
CNC(=O)Cn1cc(C#N)c2cc(Oc3ccc(NC(=O)[C@@H]4CCCN4)cc3)ccc21

>  <target_entity>
6-phosphofructo-2-kinase/fructose-2,6-bisphosphatase 1 (Homo sapiens, UniProt P16118)

>  <IC50>
16.9 µM

$$$$
>  <structure_notation>
Cn1c(N)c(C#N)c2cc(Oc3ccc(NC(=O)CN)cc3)ccc21

>  <target_entity>
6-phosphofructo-2-kinase/fructose-2,6-bisphosphatase 1 (Homo sapiens, UniProt P16118)

>  <IC50>
38.2 µM

$$$$
>  <structure_notation>
N#Cc1c(N)[nH]c2ccc(Oc3ccc(NC(=O)CN)cc3)cc12

>  <target_entity>
6-phosphofructo-2-kinase/fructose-2,6-bisphosphatase 1 (Homo sapiens, UniProt P16118)

>  <IC50>
> 100 µM

$$$$

---

target_entity: 6-phosphofructo-2-kinase/fructose-2,6-bisphosphatase 3 (Homo sapiens, UniProt Q16875)
Sequence (Q16875 whole entry): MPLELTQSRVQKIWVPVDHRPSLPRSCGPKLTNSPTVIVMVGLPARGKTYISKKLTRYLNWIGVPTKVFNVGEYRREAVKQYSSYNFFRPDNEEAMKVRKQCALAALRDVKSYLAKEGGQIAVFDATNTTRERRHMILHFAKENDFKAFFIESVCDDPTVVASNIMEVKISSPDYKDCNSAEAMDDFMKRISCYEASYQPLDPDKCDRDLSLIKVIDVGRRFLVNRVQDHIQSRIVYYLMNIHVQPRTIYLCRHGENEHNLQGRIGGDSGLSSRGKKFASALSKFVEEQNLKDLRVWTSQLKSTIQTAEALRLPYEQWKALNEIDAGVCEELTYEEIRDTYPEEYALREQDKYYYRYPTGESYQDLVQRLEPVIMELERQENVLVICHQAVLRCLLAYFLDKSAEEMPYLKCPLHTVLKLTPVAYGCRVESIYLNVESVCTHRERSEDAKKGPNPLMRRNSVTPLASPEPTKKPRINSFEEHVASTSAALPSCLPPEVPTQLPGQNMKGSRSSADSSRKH
assay_text: Inhibition of PFKFB3 in human A549 cells assessed as reduction of fructose-1,6-bisphosphate formation after 4 hrs by MS/MS analysis
Assay type: cell-based
pIC50: −log10 of the molar value.

>  <structure_notation>
CNC(=O)Cn1cc(C#N)c2cc(Oc3ccc(NC(=O)[C@@H]4CCCN4)cc3)ccc21

>  <censor_symbol>
=

>  <pIC50>
4.85

$$$$
>  <structure_notation>
Cc1noc(C)c1Cn1nc(C#N)c2cc(Oc3ccc(NC(=O)[C@@H]4CCCN4)cc3)ccc21

>  <censor_symbol>
=

>  <pIC50>
7.17

$$$$
>  <structure_notation>
N#Cc1c(N)n(Cc2ccccc2)c2ccc(Oc3ccc(NC(=O)CN)cc3)cc12

>  <censor_symbol>
<

>  <pIC50>
4.52

$$$$
>  <structure_notation>
CC(C)Cn1nc(C#N)c2cc(Oc3ccc(NC(=O)[C@@H]4CCCN4)cc3)ccc21

>  <censor_symbol>
=

>  <pIC50>
6.53

$$$$
>  <structure_notation>
Cn1cc(-c2cn(C)c3ccc(Oc4ccc(NC(=O)[C@@H]5CCCN5)cc4)cc23)cn1

>  <censor_symbol>
=

>  <pIC50>
6.01

$$$$

---

assay_text: Half life in mouse hepatocytes
Type: ADME, cell-based, Hepatocyte

>  <structure_notation>
CC(C)Cn1cc(C#N)c2cc(Oc3ccc(NC(=O)[C@@H]4CCCN4)cc3)ccc21

>  <half-life, min>
21

$$$$

---

assay_text: Half life in human hepatocytes
Assay type: ADME, cell-based, Hepatocyte

>  <structure_notation>
CC(C)Cn1cc(C#N)c2cc(Oc3ccc(NC(=O)[C@@H]4CCCN4)cc3)ccc21

>  <scale_unit>
min

>  <half-life>
28

$$$$
